- condition.set: 293.15 K; 100 kPa; Liquid; Vibrating tube method
readout.name: mass density (kg/m3)

CCCC[P+](CCCC)(CCCC)CCCC.O=S(=O)([O-])CC(O)CNC1CCCCC1 = 1034.2
CCCC[P+](CCCC)(CCCC)CCCC.O=S(=O)([O-])CCN(CCO)CCO = 1063.9
CCCC[P+](CCCC)(CCCC)CCCC.O=S(=O)([O-])CC(O)CN1CCOCC1 [tetrabutylphosphonium 2-hydroxy-3-morpholinopropanesulfonate] = 1059.9
C[N+](C)(C)CCO.O=S(=O)([O-])CCN(CCO)CCO = 1248

###

- condition.set: 353.15 K; 100 kPa; Liquid; Vibrating tube method
readout.name: mass density (kg/m3)

CCCC[P+](CCCC)(CCCC)CCCC.O=S(=O)([O-])CC(O)CNC1CCCCC1 = 997.9
CCCC[N+](CCCC)(CCCC)CCCC.O=S(=O)([O-])CCN(CCO)CCO = 1030.1
C[N+](C)(C)CCO.O=S(=O)([O-])CCN(CCO)CCO = 1214.1
CCCC[N+](CCCC)(CCCC)CCCC.O=S(=O)([O-])CC(O)CNC1CCCCC1 = 994.3
C[N+](C)(C)CCO.O=S(=O)([O-])CC(O)CNC(CO)(CO)CO (stereo not drawn) = 1301.8
C[N+](C)(C)CCO.O=S(=O)([O-])CC(O)CN1CCOCC1 (stereo not drawn) = 1209.7
CCCC[N+](CCCC)(CCCC)CCCC.O=S(=O)([O-])CC(O)CN1CCOCC1 [tetrabutylammonium 2-hydroxy-3-morpholinopropanesulfonate] = 1024.7
CCCC[P+](CCCC)(CCCC)CCCC.O=S(=O)([O-])CCN(CCO)CCO = 1030.1

###

- condition.set: 313.15 K; 100 kPa; Liquid; Concentric cylinders viscometry
readout.name: viscosity (mPa·s)

In the examples that follow, each entry is paired with its recorded viscosity.
CCCC[P+](CCCC)(CCCC)CCCC.O=S(=O)([O-])CC(O)CN1CCOCC1 [tetrabutylphosphonium 2-hydroxy-3-morpholinopropanesulfonate] = 1889.2
CCCC[N+](CCCC)(CCCC)CCCC.O=S(=O)([O-])CCN(CCO)CCO = 12001
CCCC[N+](CCCC)(CCCC)CCCC.O=S(=O)([O-])CC(O)CNC1CCCCC1 = 22114
CCCC[P+](CCCC)(CCCC)CCCC.O=S(=O)([O-])CC(O)CNC1CCCCC1 = 2441.9

I: CCCC[P+](CCCC)(CCCC)CCCC.O=S(=O)([O-])CCN(CCO)CCO
II: C[N+](C)(C)CCO.O=S(=O)([O-])CC(O)CN1CCOCC1 (stereo not drawn)
III: C[N+](C)(C)CCO.O=S(=O)([O-])CCN(CCO)CCO
IV: CCCC[N+](CCCC)(CCCC)CCCC.O=S(=O)([O-])CC(O)CN1CCOCC1 [tetrabutylammonium 2-hydroxy-3-morpholinopropanesulfonate]
Incoming: Order field: viscosity | Direction: descending (largest first) Give me the labels in the order the question wants.
Outgoing: II, IV, III, I

###

- method: refractive index (Na D-line) (dimensionless)
- condition.set: 323.15 K; 100 kPa; Liquid; Standard Abbe refractometry
readout.name: refractive index

CCCC[N+](CCCC)(CCCC)CCCC.O=S(=O)([O-])CCN(CCO)CCO = 1.48185
C[N+](C)(C)CCO.O=S(=O)([O-])CC(O)CN1CCOCC1 (centres undefined) = 1.49453
CCCC[P+](CCCC)(CCCC)CCCC.O=S(=O)([O-])CC(O)CN1CCOCC1 [tetrabutylphosphonium 2-hydroxy-3-morpholinopropanesulfonate] = 1.48573
CCCC[P+](CCCC)(CCCC)CCCC.O=S(=O)([O-])CC(O)CNC1CCCCC1 = 1.48547

###

- condition.set: 333.15 K; 100 kPa; Liquid; Concentric cylinders viscometry
readout.name: viscosity (mPa·s)

CCCC[P+](CCCC)(CCCC)CCCC.O=S(=O)([O-])CC(O)CN1CCOCC1 [tetrabutylphosphonium 2-hydroxy-3-morpholinopropanesulfonate] = 457.8

1: CCCC[P+](CCCC)(CCCC)CCCC.O=S(=O)([O-])CC(O)CNC1CCCCC1
2: C[N+](C)(C)CCO.O=S(=O)([O-])CC(O)CNC(CO)(CO)CO (centres undefined)
3: CCCC[N+](CCCC)(CCCC)CCCC.O=S(=O)([O-])CCN(CCO)CCO
4: C[N+](C)(C)CCO.O=S(=O)([O-])CCN(CCO)CCO
5: C[N+](C)(C)CCO.O=S(=O)([O-])CC(O)CN1CCOCC1 (centres undefined)
Incoming: # ascending order, key=viscosity Give me the labels in the order the question wants.
Outgoing: 1, 4, 3, 5, 2

I: CCCC[P+](CCCC)(CCCC)CCCC.O=S(=O)([O-])CCN(CCO)CCO
II: CCCC[N+](CCCC)(CCCC)CCCC.O=S(=O)([O-])CC(O)CNC1CCCCC1
Incoming: Which record shows the lower viscosity: the first, I , or the second, II ? # answer = label of selected item
Outgoing: I
(I: 611.8 mPa·s, II: 2935.7 mPa·s)

###

- condition.set: 343.15 K; 100 kPa; Liquid; Vibrating tube method
readout.name: mass density (kg/m3)

CCCC[P+](CCCC)(CCCC)CCCC.O=S(=O)([O-])CCN(CCO)CCO = 1035.6
CCCC[N+](CCCC)(CCCC)CCCC.O=S(=O)([O-])CCN(CCO)CCO = 1035.6
CCCC[P+](CCCC)(CCCC)CCCC.O=S(=O)([O-])CC(O)CNC1CCCCC1 = 1003.8
CCCC[N+](CCCC)(CCCC)CCCC.O=S(=O)([O-])CC(O)CNC1CCCCC1 = 999.9
C[N+](C)(C)CCO.O=S(=O)([O-])CCN(CCO)CCO = 1219.5

###

- condition.set: 323.15 K; 100 kPa; Liquid; Concentric cylinders viscometry
readout.name: viscosity (mPa·s)

In the examples that follow, each entry is paired with its recorded viscosity.
CCCC[P+](CCCC)(CCCC)CCCC.O=S(=O)([O-])CC(O)CNC1CCCCC1 = 1109.7
CCCC[N+](CCCC)(CCCC)CCCC.O=S(=O)([O-])CC(O)CNC1CCCCC1 = 7480.4
C[N+](C)(C)CCO.O=S(=O)([O-])CCN(CCO)CCO = 2861

a: CCCC[P+](CCCC)(CCCC)CCCC.O=S(=O)([O-])CCN(CCO)CCO
b: CCCC[N+](CCCC)(CCCC)CCCC.O=S(=O)([O-])CCN(CCO)CCO
Incoming: Which of the two gives a bigger number for viscosity: a or b ? # answer = label of selected item
Outgoing: b
(b: 4970.6 mPa·s, a: 1356.9 mPa·s)

###

- condition.set: 308.15 K; 100 kPa; Liquid; Vibrating tube method
readout.name: mass density (kg/m3)

CCCC[P+](CCCC)(CCCC)CCCC.O=S(=O)([O-])CCN(CCO)CCO = 1055.3
C[N+](C)(C)CCO.O=S(=O)([O-])CCN(CCO)CCO = 1238.9
C[N+](C)(C)CCO.O=S(=O)([O-])CC(O)CN1CCOCC1 (configuration not stated) = 1235.3
CCCC[P+](CCCC)(CCCC)CCCC.O=S(=O)([O-])CC(O)CNC1CCCCC1 = 1025.1
CCCC[P+](CCCC)(CCCC)CCCC.O=S(=O)([O-])CC(O)CN1CCOCC1 [tetrabutylphosphonium 2-hydroxy-3-morpholinopropanesulfonate] = 1050.5
CCCC[N+](CCCC)(CCCC)CCCC.O=S(=O)([O-])CC(O)CN1CCOCC1 [tetrabutylammonium 2-hydroxy-3-morpholinopropanesulfonate] = 1051.2
CCCC[N+](CCCC)(CCCC)CCCC.O=S(=O)([O-])CC(O)CNC1CCCCC1 = 1020.4

###

- method: refractive index (Na D-line) (dimensionless)
- condition.set: 333.15 K; 100 kPa; Liquid; Standard Abbe refractometry
readout.name: refractive index

C[N+](C)(C)CCO.O=S(=O)([O-])CC(O)CNC(CO)(CO)CO (centres undefined) = 1.50769
CCCC[N+](CCCC)(CCCC)CCCC.O=S(=O)([O-])CC(O)CNC1CCCCC1 = 1.47617
C[N+](C)(C)CCO.O=S(=O)([O-])CCN(CCO)CCO = 1.49148
CCCC[P+](CCCC)(CCCC)CCCC.O=S(=O)([O-])CC(O)CN1CCOCC1 [tetrabutylphosphonium 2-hydroxy-3-morpholinopropanesulfonate] = 1.48239
CCCC[N+](CCCC)(CCCC)CCCC.O=S(=O)([O-])CC(O)CN1CCOCC1 [tetrabutylammonium 2-hydroxy-3-morpholinopropanesulfonate] = 1.47525
CCCC[N+](CCCC)(CCCC)CCCC.O=S(=O)([O-])CCN(CCO)CCO = 1.4792
C[N+](C)(C)CCO.O=S(=O)([O-])CC(O)CN1CCOCC1 (centres undefined) = 1.49185
CCCC[P+](CCCC)(CCCC)CCCC.O=S(=O)([O-])CCN(CCO)CCO = 1.4859
CCCC[P+](CCCC)(CCCC)CCCC.O=S(=O)([O-])CC(O)CNC1CCCCC1 = 1.48202
